The measured values listed here are drawn from patent US20230398130A1.

Please provide measured Dose.FC.LYZ.NS for the entries that follow.
tested on: ISC-enriched organoids; assay: Primary screen, 384-well 2.5-D organoid differentiation (ENR+CD, 6 days): basal lysozyme secretion (LYZ.NS); format: cell-based, murine; details: Dose 10.00 uM; primary screen, FC vs plate median
Only the number, expressed in log 2 fold change, is required.

get_value(item= CCc1c(C(=O)NCCc2ccc(N3CCCCC3)cc2)[nH]c2ccc(Cl)cc12 [Org 27569] , readout=Dose.FC.LYZ.NS) returns 0.029

For this molecule ( O=C(c1ccc(Nc2nccc(-c3cc4ccccc4s3)n2)cc1)N1CCC(N2CCCC2)CC1 [IKK-16 (IKK Inhibitor VII)] ), measured Dose.FC.LYZ.NS is −0.291

Short answer for O=C(Nc1cc(C(F)(F)F)cc(C(F)(F)F)c1)c1cc(Cl)ccc1O [IMD 0354] : Dose.FC.LYZ.NS was −0.089

Per the records, this molecule ( CC(C)(C)n1nc(-c2ccc(Cl)cc2)c2c(N)ncnc21 [PP2] ) has Dose.FC.LYZ.NS equal to −0.027

So, C=CC(=O)N1CCC[C@@H](n2nc(-c3ccc(Oc4ccccc4)cc3)c3c(N)ncnc32)C1 [Ibrutinib (PCI-32765)] ? Its Dose.FC.LYZ.NS was −0.199

Notebook: COc1cc(OC)c(NC(=O)Nc2cc(C)on2)cc1Cl [PNU-120596] , Dose.FC.LYZ.NS read as −0.060

Kindly note the recorded Dose.FC.LYZ.NS for COc1cc(-n2c(=S)[nH]c3ccccc3c2=O)c(Cl)cc1Cl [Mdivi-1] , which is −0.268

Entry O=[N+]([O-])C=Cc1ccc2c(c1)OCO2 , Dose.FC.LYZ.NS reported as −0.150

Fc1cc(F)c2c(c1)[C@H]1C=CC[C@H]1C(c1cccnc1)N2 (mixture of isomers) [Golgicide A] yielded Dose.FC.LYZ.NS of −0.161

Dose.FC.LYZ.NS for CC(=O)c1cc([N+](=O)[O-])c(Sc2ccc(F)cc2F)s1 [P22077] is −0.056

Please fill in: Dose.FC.LYZ.NS reported for NC(=O)c1ccc(I)c([N+](=O)[O-])c1 [Iniparib (BSI-201)] = −0.016

Lab note: O=c1cc(N2CCOCC2)oc2c1ccc1ccccc12 [NU7026] gave Dose.FC.LYZ.NS of −0.158

// field: Dose.FC.LYZ.NS; key: O=C(O)CNC(=O)c1c(O)c2ccccc2n(Cc2ccccc2)c1=O [IOX2] ; value = −0.045

Dose.FC.LYZ.NS measured on OCCn1cc(-c2cnc3nnn(Cc4ccc5ncccc5c4)c3n2)cn1 [PF-04217903] = 0.071

Item: O=C(NOCC1CC1)c1ccc(F)c(F)c1Nc1ccc(I)cc1Cl [PD184352 (CI-1040)] | Dose.FC.LYZ.NS: −0.116

Record CCn1c(-c2nonc2N)nc2c(C#CC(C)(C)O)ncc(OC[C@H]3CCCNC3)c21 [GSK690693] . Reported Dose.FC.LYZ.NS: −0.080

Data point: Cc1cc(SCc2sc(-c3ccc(C(F)(F)F)c(F)c3)nc2C)ccc1OCC(=O)O [GW0742] ; Dose.FC.LYZ.NS = −0.152

Lab note: measured Dose.FC.LYZ.NS of CCCCc1nc(Cl)c(CO)n1Cc1ccc(-c2ccccc2-c2nnn[n-]2)cc1.[K+] [Losartan Potassium (DuP 753)] was 0.062
